# System: GSC7 cells
# TEST_DETAILS: Nano-Glo Dual-Luciferase Reporter (Nanoglo DLR) assay of enhancer activity, fold change to mCMV
# Assay type: cell-based, human
# EXPERIMENTAL_SETUP: expression fold change of the individual enhancer compared to mCMV
This listing pairs molecules with measured Fold change (Median).

Past entries and their recorded results:
{"columns": ["MOLECULE", "Fold change (Median)"],
 "data": [
  ["ID4310: enhancer fragment, SEQ ID NO: 17 (nucleic acid) DNA: TTGTCCTGCCTTTGAGAACACTGGAAGGGCACTGAAGGCTGACCAGCATGCACCTCACCCCACCTCCTCTCTGTCTCATCCTCAGCCATCTAAGCGGGAGACTCATCAGGCTTAAATTCTCATTCTTATCCAAGATTCTTCTGCTTCAAATGAG", "36.3 fold"],
  ["ID0785: enhancer fragment, SEQ ID NO: 19 (nucleic acid, listed as DNA, chemistry not given here) DNA: AAGAATGAACTGGGCCCAGCTGGGCATTTGCATCAAAGTGCCTCACCAGAGTTCCCAGCTGCTCTGGCAGAGTGCCCAGGCTTGCCCCAGAGCCCAAACAGAATGCTCTTTGAGATGCCTCTGGTTTTCA", "34.3 fold"]
]}

Now for another entry.
Fold change (Median) lookup needed for ID2706: enhancer fragment, SEQ ID NO: 12 (nucleic acid) DNA: CCAATGCCAAAGCAGTTTACATTTTACAGATGCCATGGCAACCGTCAGGAAGTTACCCTGTATGGTCTAAGAGGGGGAGGAACCCTCAGTTCCGGGAATTGCCCGCCCCTTTCCCGGAAACTCATGAATAATCCACCC , thanks. 57.2 fold
